# TARGET_DESC: Recombinant human integrin αvβ3 (Homo sapiens (Human), UniProt P05106+P06756)
# Sequence (P06756 31-992): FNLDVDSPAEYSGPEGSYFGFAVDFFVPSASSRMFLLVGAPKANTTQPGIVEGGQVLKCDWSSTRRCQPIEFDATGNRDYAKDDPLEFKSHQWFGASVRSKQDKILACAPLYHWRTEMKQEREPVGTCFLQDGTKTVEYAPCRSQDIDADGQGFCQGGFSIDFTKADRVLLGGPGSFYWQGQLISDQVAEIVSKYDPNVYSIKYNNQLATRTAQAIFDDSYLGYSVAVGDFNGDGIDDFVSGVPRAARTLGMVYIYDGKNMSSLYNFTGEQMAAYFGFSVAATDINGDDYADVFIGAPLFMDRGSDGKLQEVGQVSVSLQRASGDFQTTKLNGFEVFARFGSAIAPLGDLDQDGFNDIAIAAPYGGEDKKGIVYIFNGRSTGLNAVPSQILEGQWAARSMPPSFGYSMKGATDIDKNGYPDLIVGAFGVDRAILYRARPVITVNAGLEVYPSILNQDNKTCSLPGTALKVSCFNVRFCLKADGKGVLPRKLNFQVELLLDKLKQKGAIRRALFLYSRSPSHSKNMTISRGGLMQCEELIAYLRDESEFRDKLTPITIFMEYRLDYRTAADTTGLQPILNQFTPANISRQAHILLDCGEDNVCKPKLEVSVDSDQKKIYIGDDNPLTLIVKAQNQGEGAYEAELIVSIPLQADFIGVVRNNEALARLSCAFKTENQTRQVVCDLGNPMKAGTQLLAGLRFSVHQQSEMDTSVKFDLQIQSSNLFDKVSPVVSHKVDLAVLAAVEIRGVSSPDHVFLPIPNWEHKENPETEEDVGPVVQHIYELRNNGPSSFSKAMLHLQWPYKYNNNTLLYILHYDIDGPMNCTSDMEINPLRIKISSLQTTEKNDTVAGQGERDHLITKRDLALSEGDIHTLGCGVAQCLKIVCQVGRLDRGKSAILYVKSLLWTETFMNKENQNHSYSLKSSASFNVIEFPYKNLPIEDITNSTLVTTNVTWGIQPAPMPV
# Sequence (P05106 27-718): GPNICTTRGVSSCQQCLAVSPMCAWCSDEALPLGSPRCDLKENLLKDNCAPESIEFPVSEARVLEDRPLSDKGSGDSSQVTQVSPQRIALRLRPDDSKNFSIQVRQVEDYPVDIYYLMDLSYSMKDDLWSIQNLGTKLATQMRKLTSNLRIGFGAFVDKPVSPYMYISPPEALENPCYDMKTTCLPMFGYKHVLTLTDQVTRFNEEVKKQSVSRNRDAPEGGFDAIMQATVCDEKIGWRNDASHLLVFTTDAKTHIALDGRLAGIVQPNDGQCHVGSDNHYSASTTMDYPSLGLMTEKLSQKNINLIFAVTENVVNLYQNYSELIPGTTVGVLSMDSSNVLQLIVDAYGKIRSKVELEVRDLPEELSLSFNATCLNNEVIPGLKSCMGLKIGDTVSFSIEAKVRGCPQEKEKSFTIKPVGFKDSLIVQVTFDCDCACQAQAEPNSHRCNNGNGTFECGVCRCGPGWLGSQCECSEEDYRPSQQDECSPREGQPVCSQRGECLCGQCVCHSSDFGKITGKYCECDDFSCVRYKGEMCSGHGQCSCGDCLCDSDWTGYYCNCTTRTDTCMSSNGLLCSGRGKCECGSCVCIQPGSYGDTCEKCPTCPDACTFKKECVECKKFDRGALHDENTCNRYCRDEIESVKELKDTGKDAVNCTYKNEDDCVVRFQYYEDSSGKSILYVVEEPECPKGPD
# ASSAY_EXPLANATION: Solid Phase Receptor Assay (SPRA) for αvβ3 function
# PROTOCOL_CONDITIONS: vitronectin-coated plate
pIC50: −log10 of the molar value.
Catalogue of pIC50 values
READOUT_NAME: pIC50

• O=C(O)C[C@H](NC(=O)CNC(=O)c1cc(O)cc(NC2=NCC(O)CN2)c1)c1cc(Br)cc(C(F)(F)F)c1 (stereo partly shown) = 8.57
• O=C(O)C[C@H](NC(=O)CNC(=O)c1cncc(NC2=NCC(O)CN2)c1)c1cc(Cl)cc(Br)c1 (stereo partly shown) = 8.40
• O=C(O)C[C@H](NC(=O)CNC(=O)c1cc(O)cc(NC2=NCC(O)CN2)c1)c1cc(C(F)(F)F)cc(C(F)(F)F)c1 (stereo partly shown) = 8.40
• O=C(O)C[C@H](NC(=O)CNC(=O)c1cncc(NC2=NCC(O)CN2)c1)c1cc(Br)cc(C(F)(F)F)c1 (stereo partly shown) = 8.52
• O=C(O)C[C@H](NC(=O)CNC(=O)c1cc(O)cc(NC2=NCC(O)CN2)c1)c1cc(Cl)cc(OC(F)(F)F)c1 (stereo partly shown) = 8.52
• O=C(O)C[C@H](NC(=O)CNC(=O)c1cc(O)cc(NC2=NCC(O)CN2)c1)c1cc(Br)cc(Br)c1 (stereo partly shown) = 8.64
• Cc1cc(Cl)cc([C@H](CC(=O)O)NC(=O)CNC(=O)c2cc(O)cc(NC3=NCC(O)CN3)c2)c1 (stereo partly shown) = 8.40

---

# TARGET_DESC: Recombinant human integrin αvβ8 (Homo sapiens (Human), UniProt P06756+P26012)
# Sequence (P06756 31-992): as the sequence (P06756 31-992) above
# Sequence (P26012 43-684): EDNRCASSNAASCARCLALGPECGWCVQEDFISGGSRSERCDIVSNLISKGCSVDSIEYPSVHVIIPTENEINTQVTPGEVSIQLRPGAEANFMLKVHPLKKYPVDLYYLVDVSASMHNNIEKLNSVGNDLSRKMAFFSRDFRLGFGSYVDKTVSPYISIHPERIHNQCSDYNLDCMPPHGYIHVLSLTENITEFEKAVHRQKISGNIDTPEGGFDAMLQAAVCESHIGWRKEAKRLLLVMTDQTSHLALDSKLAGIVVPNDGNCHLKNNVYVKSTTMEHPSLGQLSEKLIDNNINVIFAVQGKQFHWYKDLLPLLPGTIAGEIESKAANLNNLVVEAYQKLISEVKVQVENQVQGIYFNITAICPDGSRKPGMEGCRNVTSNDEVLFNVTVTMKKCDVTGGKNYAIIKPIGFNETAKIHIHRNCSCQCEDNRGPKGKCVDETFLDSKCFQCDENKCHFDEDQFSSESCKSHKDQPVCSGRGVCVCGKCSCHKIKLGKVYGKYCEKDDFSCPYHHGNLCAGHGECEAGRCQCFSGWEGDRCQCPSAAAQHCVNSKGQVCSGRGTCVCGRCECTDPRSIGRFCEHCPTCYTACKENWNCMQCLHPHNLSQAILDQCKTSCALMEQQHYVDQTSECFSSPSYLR
# ASSAY_EXPLANATION: Solid Phase Receptor Assay (SPRA) for αvβ8 function
# PROTOCOL_CONDITIONS: LAP-coated plate
Consider the cut-off 9 nM. If the recorded IC50 is strictly smaller, the label is yes; if not, the label is no.

- Cc1ccc(O)c(C(CC(=O)O)NC(=O)CNC(=O)c2cccc(NC(=N)N)c2)c1 (stereo not drawn) [Example C8, reference compound]: no
- O=C(O)C[C@H](NC(=O)CNC(=O)c1cncc(NC2=NCC(O)CN2)c1)c1cc(Cl)cc(Br)c1 (stereo partly drawn): yes
- O=C(O)CC(NC(=O)CNC(=O)c1cc(O)cc(NC2=NCC(O)CN2)c1)c1cc(Br)cc(Br)c1O (stereo not drawn) [Example C7, reference compound]: yes
- Cc1cc(Cl)cc([C@@H](CC(=O)O)NC(=O)CNC(=O)c2cccc(NC3=NCCN3)c2)c1O [Example C11, reference compound]: no
- N=C(N)Nc1cccc(C(=O)NCC(=O)NC(CC(=O)O)c2ccccc2)c1 (stereo not drawn) [Example C5, reference compound]: no
- N=C(N)Nc1cccc(C(=O)NCC(=O)NC(CC(=O)O)c2cc(F)cc(C(F)(F)F)c2)c1 (stereo not drawn) [Example C9, reference compound]: yes
- O=C(O)C[C@H](NC(=O)CNC(=O)c1cc(O)cc(NC2=NCC(O)CN2)c1)c1cc(Br)cc(OC(F)(F)F)c1 (stereo partly drawn): yes
- O=C(O)CC(NC(=O)CNC(=O)c1cc(O)cc(NC2=NCC(O)CN2)c1)c1cc(Cl)cc(Cl)c1O (stereo not drawn) [Example C3, reference compound]: yes
